Attribute: IC50
System Tested: ACCase (chloroplastic acetyl coenzyme A carboxylase)
Construct: plastid and cytosolic forms not separated; S biotype has Arg1789, Met2065, Gly2067, Val2077
Test Name: NaH14CO3 incorporation into acid-stable product (malonyl-CoA)
Format: biochemical, Cynosurus echinatus
Run Conditions: R biotype; stated gain; 5 mM acetyl-CoA, 1.5 mM ATP, 5 mM MgCl2, 15 mM bicarbonate, pH 8.3, 34°C; read-out: I50
Kindly answer with a numeric value in µM, unit omitted.

The molecule identified as CCc1cc(C)cc(CC)c1-c1c(OC(=O)C(C)(C)C)n2n(c1=O)CCOCC2 [Pinoxaden] registered its IC50 at 9.1

The molecule identified as CCCC(=NOCC)C1=C(O)CC(C2CCCSC2)CC1=O (stereo not drawn) [Cycloxidim] registered its IC50 at 7.89

The molecule identified as CC(Oc1ccc(Oc2nc3ccc(Cl)cc3o2)cc1)C(=O)O (racemic) [Fenoxaprop] registered its IC50 at 24.2

The molecule identified as CC(Oc1ccc(Oc2ccc(Cl)cc2Cl)cc1)C(=O)O (stereo not drawn) [Diclofop] registered its IC50 at 63.5

The molecule identified as C[C@@H](Oc1ccc(Oc2ccc(C#N)cc2F)cc1)C(=O)O [Cihalofop] registered its IC50 at 70.8

The molecule identified as CCCC(=NOCC)C1=C(O)CC(CC(C)SCC)CC1=O (stereo not drawn) [Setoxidim] registered its IC50 at 3500
